# Experimental Details: Solubility of the crystalline salt forms in water
# Assay type: physicochemical
# Test Parameters: shaken 2 hours, filtered, UV-spectroscopy
Can you tell me solubility in water at room temperature for the items I'm about to list?
Respond numerically; units are µg/mL and should not be typed.

Input: Give the measured solubility in water at room temperature of O=C1NS(=O)(=O)c2ccccc21.O=c1[nH]c2ccccc2n1CCN1CCN(c2cccc(C(F)(F)F)c2)CC1 .
Output: 300

Input: Can you handle O=C(O)/C=C/C(=O)O.O=c1[nH]c2ccccc2n1CCN1CCN(c2cccc(C(F)(F)F)c2)CC1 next?
Output: 500

Input: Can you handle CCS(=O)(=O)O.O=c1[nH]c2ccccc2n1CCN1CCN(c2cccc(C(F)(F)F)c2)CC1 next?
Output: 1300

Input: Can you handle CS(=O)(=O)O.O=c1[nH]c2ccccc2n1CCN1CCN(c2cccc(C(F)(F)F)c2)CC1 next?
Output: 1100
